System: phenyl-para-quinone induced writhing
assayMethodText: phenyl-para-quinone writhing assay in mice (analgesia)
Type: in vivo
details: Mus musculus, sc; mice, subcutaneous; read-out: Analgesic Activity ED50 (dose at which 50% of the phenyl-para-quinone induced writhing is inhibited)
Please assign criterion not met whenever ED50 is at or above 1 mg/kg, and criterion met whenever it is below.

Problem: Answer whether the compound Cl.O=C(c1ccc(F)cc1)C1CCN(CCCc2noc3cc(F)ccc23)CC1 has ED50 strictly less than 1 mg/kg
Result: criterion met

###

System: phenyl-para-quinone induced writhing
assayMethodText: phenyl-para-quinone writhing assay in mice (analgesia)
Format: in vivo
details: Mus musculus, sc; mice, subcutaneous; read-out: Analgesic Activity ED50 (dose at which 50% of the phenyl-para-quinone induced writhing is inhibited)
Please assign false (0) whenever ED50 is at or above 2 mg/kg, and true (1) whenever it is below.

Answered examples (8):
Cl.Fc1ccc2c(CCCN3CCC(Sc4ccccc4)CC3)noc2c1
false (0)
Fc1ccc2c(CCCNN3CCCCC3)noc2c1
false (0)
Fc1ccc2c(CCCN3CCCCCC3)noc2c1.O=C(O)C(=O)O
true (1)
Cl.Fc1ccc2c(CCCN3CCC(c4ccccc4)CC3)noc2c1
true (1)
Cl.Fc1ccc2c(CCCN3CCC4(CC3)OCCO4)noc2c1
true (1)
Fc1ccc2c(CCCN3CCCC3)noc2c1.O=C(O)C(=O)O
true (1)
Fc1ccc2c(CCCN3CCOCC3)noc2c1
false (0)
O=C(NC1CCN(CCCc2noc3cc(F)ccc23)CC1)c1ccccc1
true (1)

Problem: Answer whether the compound Cl.Fc1ccc2c(CCCN3CCCCC3)noc2c1 has ED50 strictly less than 2 mg/kg
Result: true (1)
